# TGT: Diacylglycerol lipase-beta (Mus musculus)
# EXPERIMENT SUMMARY: mouse DAGLb inhibitors by competitive ABPP, late-stage follow-up, biochemical, gel-based fluorescence, overexpressed mouse, set 2 (AID 602299)
# SETTINGS: HEK293T membrane overexpressed mouse DAGLb, at 10 µM, active compounds read high
Active and inactive are the calls of the source.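 How the source made its calls: active means inhibition of 50% or more of probe labeling of the enzyme band; inactive means inhibition below 50%.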
MEASURE NAME: inhibition

Q. Entry under review: COc1ccc(-c2ccc(-c3cn(C(=O)N4CCCCC4c4ccccc4)nn3)cc2)cc1 (stereo unspecified) . Reported inhibition?
A. 11% (inactive)

Q. Now the same for COc1ccccc1-c1ccc(-c2cn(C(=O)N3CCCCC3c3ccccc3)nn2)cc1 (stereo unspecified)
A. 64%

Q. Now the same for O=C(N1CCCCC1CCc1ccccc1)n1cc(-c2ccc(-c3ccccc3)cc2)nn1 (stereo unspecified)
A. 59%

Q. Now the same for `COc1ccccc1-c1ccc(-c2cn(C(=O)N3CCC(Cc4ccccc4)CC3)nn2)cc1`
A. 98%

Q. Now the same for O=C(N1CCCCC1c1ccccc1)n1cc(C(O)(c2ccccc2)c2ccccc2)nn1 (stereo unspecified)
A. 39% (inactive)

Q. Now the same for COc1ccccc1-c1ccc(-c2cn(C(=O)N3CCCCC3CCc3ccccc3)nn2)cc1 (stereo unspecified)
A. 69%
